biological target: EGFR (Homo sapiens); construct: The intracellular portion of EGFR started at nucleotide 2189 (corresponding to amino acid 667) and ended at the termination codon; assay: EGFR Kinase Assay; conditions: GST-EGFR, ATP 5 μM
Sequence (P00533 669-1210 limits assumed): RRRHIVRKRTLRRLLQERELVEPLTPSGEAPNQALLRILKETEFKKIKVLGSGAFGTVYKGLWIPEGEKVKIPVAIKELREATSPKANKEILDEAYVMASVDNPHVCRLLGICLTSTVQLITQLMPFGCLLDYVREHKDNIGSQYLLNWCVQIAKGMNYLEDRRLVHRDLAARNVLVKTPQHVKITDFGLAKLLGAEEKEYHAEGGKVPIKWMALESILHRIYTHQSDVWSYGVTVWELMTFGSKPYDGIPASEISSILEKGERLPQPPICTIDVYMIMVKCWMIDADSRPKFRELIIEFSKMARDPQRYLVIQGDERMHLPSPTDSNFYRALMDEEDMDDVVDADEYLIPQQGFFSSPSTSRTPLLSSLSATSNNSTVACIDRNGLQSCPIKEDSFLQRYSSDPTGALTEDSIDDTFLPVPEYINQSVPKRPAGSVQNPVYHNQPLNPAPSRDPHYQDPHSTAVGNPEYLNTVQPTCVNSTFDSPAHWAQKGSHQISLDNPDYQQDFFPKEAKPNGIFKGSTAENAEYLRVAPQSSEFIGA
pIC50: −log10 of the molar value.
Entry flag: true (1) if pIC50 reaches 7; false (0) if it does not.

Solved cases (5 shown):
# COMPOUND, CATEGORY LABEL
rows = [
    ("CN(C)C1CCN(Cc2ccc(NC(=O)c3sc4ncnc5c4c3NC(=O)N5c3ccc(Oc4ccccc4)cc3)cc2)CC1 [Cpd 260]", "true (1)"),
    ("O=C(NCCCO)c1sc2ncnc3c2c1NC(=O)N3c1ccc(Oc2ccccc2)c(Cl)c1 [Cpd 137]", "true (1)"),
    ("O=C(Nc1ccc(CN2CCOCC2)cc1)c1sc2ncnc3c2c1NC(=O)N3c1ccc(OCc2ccccn2)c(Cl)c1 [Cpd 52]", "true (1)"),
    ("COc1cc(NC(=O)c2sc3ncnc4c3c2NC(=O)N4c2cc(OC)c(OC)c(OC)c2Cl)ccc1OCC1CCCCO1 (stereo not shown) [Cpd 30]", "false (0)"),
    ("O=C(Nc1ccc(CN2CCCCC2)cc1)c1sc2ncnc3c2c1NC(=O)N3c1ccc(Cc2ccccc2)cc1 [Cpd 164]", "true (1)"),
]

We next turn to a different compound, shown below.
Req: Does the reported pIC50 for O=C(Nc1ccc(CN2CCCCC2)cc1)c1sc2ncnc3c2c1NC(=O)N3c1ccc(OCc2ccccn2)c(Cl)c1 [Cpd 89] fall at or above the 7 mark?
Resp: true (1)

* * *

target: Lyn kinase (human) (Homo sapiens); construct: purchased Upstate Biotechnology, Lake Placid, N.Y; assay: Lyn Kinase Assay; assay type: biochemical; settings: test concentration of 2 μM
Sequence (P07948 whole entry): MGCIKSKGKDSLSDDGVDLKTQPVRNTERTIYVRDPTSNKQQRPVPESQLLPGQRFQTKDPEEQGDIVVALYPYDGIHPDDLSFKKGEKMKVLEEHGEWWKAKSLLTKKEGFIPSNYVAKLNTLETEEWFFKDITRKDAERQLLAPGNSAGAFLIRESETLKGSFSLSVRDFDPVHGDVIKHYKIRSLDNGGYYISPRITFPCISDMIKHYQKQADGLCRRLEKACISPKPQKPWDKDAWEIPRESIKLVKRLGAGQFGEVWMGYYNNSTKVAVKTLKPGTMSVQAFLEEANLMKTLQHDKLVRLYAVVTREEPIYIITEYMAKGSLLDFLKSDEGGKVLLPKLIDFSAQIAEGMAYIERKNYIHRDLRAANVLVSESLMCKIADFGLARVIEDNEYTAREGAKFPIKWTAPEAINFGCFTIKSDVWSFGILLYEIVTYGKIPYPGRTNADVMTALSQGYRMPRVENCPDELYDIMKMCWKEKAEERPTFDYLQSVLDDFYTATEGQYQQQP
VALUE KIND: inhibition at 2 µM (%)
Expressed in %, but write only the number.

# example entries with known answers
# INPUT SMILES, RECORDED NUMBER
measured = [
    ("O=C(NCCCO)c1sc2ncnc3c2c1NC(=O)N3c1ccc(F)c(Br)c1", 7),
    ("COc1ccc(N2C(=O)Nc3c(C(=O)Nc4ccc(CN5CCOCC5)cc4)sc4ncnc2c34)c(F)c1", 17.8),
    ("O=C(Nc1ccc(CN2CCCC2)cc1)c1sc2ncnc3c2c1NC(=O)N3c1cc(OCc2cccc(F)c2)c(Cl)cc1Cl", 3),
    ("COc1cc(N2C(=O)Nc3c(C(=O)Nc4ccc(CN5CCN(C)CC5)cc4)sc4ncnc2c34)c(Cl)cc1Cl", 50),
    ("O=C(NCCCO)c1sc2ncnc3c2c1NC(=O)N3c1ccc(Oc2ccccc2)c(Cl)c1", 43),
    ("O=C(NCc1ccco1)c1sc2ncnc3c2c1NC(=O)N3c1ccc(N2CCOCC2)cc1", 25),
    ("COc1cc(N2C(=O)Nc3c(C(=O)N4CCCC4)sc4ncnc2c34)c(Cl)cc1Cl", 40),
]

// next entry
Req: Reported inhibition at 2 µM for `O=C(NCCN1CCOCC1)c1sc2ncnc3c2c1NC(=O)N3c1ccc(Oc2ccccc2)cc1` : what is it?
Resp: -3

* * *

target: c-Src kinase (human) (Homo sapiens); construct: purchased Upstate Biotechnology, Lake Placid, N.Y; test: c-Src Kinase Assay; format: biochemical; conditions: test concentration of 2 μM; multiple values are separate assay results
Sequence (P12931 whole entry): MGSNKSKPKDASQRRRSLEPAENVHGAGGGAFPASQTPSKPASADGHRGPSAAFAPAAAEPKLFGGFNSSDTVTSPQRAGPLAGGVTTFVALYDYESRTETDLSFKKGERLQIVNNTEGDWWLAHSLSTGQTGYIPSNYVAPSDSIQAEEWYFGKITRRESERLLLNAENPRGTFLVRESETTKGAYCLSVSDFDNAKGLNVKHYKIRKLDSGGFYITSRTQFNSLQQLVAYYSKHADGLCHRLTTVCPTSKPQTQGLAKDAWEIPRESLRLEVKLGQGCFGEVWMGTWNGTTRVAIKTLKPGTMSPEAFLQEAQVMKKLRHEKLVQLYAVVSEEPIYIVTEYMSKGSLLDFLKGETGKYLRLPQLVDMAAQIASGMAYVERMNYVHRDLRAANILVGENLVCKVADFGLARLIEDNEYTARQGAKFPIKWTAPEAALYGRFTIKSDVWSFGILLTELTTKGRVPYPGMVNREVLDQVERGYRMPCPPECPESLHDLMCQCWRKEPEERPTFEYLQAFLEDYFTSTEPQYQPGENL
VALUE KIND: inhibition at 2 µM (%)
Expressed in %, but write only the number.

# MOLECULE, TARGET OR TEST SYSTEM, UNIT STRING, inhibition at 2 µM
records = [
    ("O=C(NCCCN1CCOCC1)c1sc2ncnc3c2c1NC(=O)N3c1ccc2c(ccn2Cc2cccc(F)c2)c1", "c-Src kinase (human) (Homo sapiens)", "%", -15),
    ("COc1cc(N2C(=O)Nc3c(C(=O)N(C)C)sc4ncnc2c34)ccc1Br", "c-Src kinase (human) (Homo sapiens)", "%", 44),
    ("COc1cc(N2C(=O)Nc3c(C(=O)Nc4ccc(CN5CCCCC5)cc4)sc4ncnc2c34)c(Cl)cc1Cl", "c-Src kinase (human) (Homo sapiens)", "%", 32),
    ("CC(C)(C)OC(=O)N1CCC(NC(=O)c2sc3ncnc4c3c2NC(=O)N4c2ccc(N3CCOCC3)cc2)CC1", "c-Src kinase (human) (Homo sapiens)", "%", -4),
    ("O=C1Nc2csc3ncnc(c23)N1c1ccc2c(ccn2Cc2cccc(F)c2)c1", "c-Src kinase (human) (Homo sapiens)", "%", -6),
]

Req: Provide value of inhibition at 2 µM for this record tested with c-Src kinase (human) (Homo sapiens): Cc1cccc(Cl)c1N1C(=O)Nc2c(C(=O)Nc3ccc(C(O)CN4CCOCC4)cc3)sc3ncnc1c23 (centres unmarked)
Resp: 53

Req: Provide value of inhibition at 2 µM for this record tested with c-Src kinase (human) (Homo sapiens): `O=C(Nc1ccc(CN2CCCCC2)cc1)c1sc2ncnc3c2c1NC(=O)N3c1ccc(OCc2ccccn2)c(Cl)c1`
Resp: 44

Req: Provide value of inhibition at 2 µM for this record tested with c-Src kinase (human) (Homo sapiens): `C[C@H](c1ccccc1)N1C(=O)Nc2c(C(=O)O)sc3ncnc1c23`
Resp: 4
